Origin of values: PubChem BioAssay (NCI)

System: UACC-62 melanoma
Test: NCI tumour cell line growth inhibition, 48 h
Exercise: for every item that follows, state its recorded TGI.
Quick note: give the figure in µM, leave out the unit.

Data point: CC(C)(C)OC(=O)NCCCCn1c2c(c3ccccc3c1=O)C(=O)c1ccccc1-2 ; TGI = 27.8

Per the record, S=C=Nc1ccc(CSc2nc3ccccc3[nH]2)cc1 has TGI of 29.4

For N#CC1=C(N)NC(=S)NC1c1ccc(-c2ccc(-c3nc4ccccc4o3)cc2)s1 (stereo not given) the compound record lists TGI as 21.3

###

Test system: SF-295 CNS
Experiment: NCI tumour cell line growth inhibition, 48 h
MEASUREMENT_KIND: TGI

Per the records, this compound ( COc1ccc(/C=C2\C[C@H]3[C@@H]4CC=C5C[C@@H](OC(C)=O)CC[C@]5(C)[C@H]4CC[C@]3(C)\C2=N\O)cc1OC ) has TGI equal to > 100 µM

Reported TGI ( C=C1[C@H]2O[C@H]2[C@@H](OC(C)=O)[C@@]2(C)[C@@H](OC(C)=O)C[C@@H](OC(=O)CCC)[C@@](C)(O)[C@@H]2[C@@H](OC(C)=O)[C@]2(O)[C@@H](C)C(=O)O[C@H]2[C@H]1Cl ) = > 100 µM

Per the record, O=[N+]([O-])c1ccc(-n2nc3ccc4c(no[n+]4[O-])c3[n+]2[O-])c([N+](=O)[O-])c1 has TGI of 11.9 µM

###

Tested on: IGROV1 ovarian
Test: NCI tumour cell line growth inhibition, 48 h
MEASUREMENT_KIND: TGI

Lab entry: IGROV1 ovarian assay, molecule CC1=NN(c2nc(N)nc(CSc3cc(Cl)c(C)cc3S(N)(=O)=O)n2)C(C)(C)C1 , TGI = > 10 µM

Entry CO[C@@H]1CCN(c2nccc(Nc3cc4c(C(C)C)ccc(N5CC(CS(C)(=O)=O)[C@H]5C)c4cn3)n2)C[C@@H]1F (some centres undefined) ; assay system IGROV1 ovarian; TGI recorded at 7.13 µM

Tested on IGROV1 ovarian, the item COc1ccc(NC(=S)NNC(=O)c2nsc3ccccc23)cc1 showed TGI equal to > 100 µM

The reported IGROV1 ovarian TGI of NC(=S)N=Nc1c(O)[nH]c2c(Cl)cc(Cl)cc12 is > 100 µM

Value sought: TGI, system IGROV1 ovarian, item OB(O)c1ccccc1C#Cc1ccccc1B(O)O . Result: 13.9 µM

TGI value, target or system IGROV1 ovarian, for COCCOCCOCc1n(Cc2ccc3ccccc3c2)c2ccccc2[n+]1Cc1ccc2ccccc2c1 : 1.55 µM

Measured TGI (IGROV1 ovarian), entry Nc1ccccc1C#C/C=C\C#CC#C/C=C\C#Cc1ccccc1N : 17.9 µM

Observed TGI on IGROV1 ovarian, entry O=C1CCCC/C1=C1/SC(=Nc2ccccc2)C(=Nc2ccccc2)N1c1ccccc1 , equals > 100 µM

IGROV1 ovarian data for O=C1C[C@H](COCc2ccccc2)NC(=O)C[C@H](COCc2ccccc2)NC(=O)C[C@H](COCc2ccccc2)N1 ; its TGI: > 100 µM

Lab entry: IGROV1 ovarian assay, molecule O=C(O)CCO/N=C1/C(c2c(O)[nH]c3ccccc23)=Nc2ccccc21 , TGI = > 100 µM

Reported IGROV1 ovarian TGI for item Cc1ccc(S(=O)(=O)OCC#CCOS(=O)(=O)c2ccc(C)cc2)cc1 was 2.86 µM

Measured TGI for this entry CC[C@@]1(OC(=O)C(N)CCCCN)C(=O)OCc2c1cc1n(c2=O)Cc2cc3ccccc3nc2-1 (some centres undefined) on IGROV1 ovarian: 2.37 µM

Tested system IGROV1 ovarian; TGI recorded for COc1cc2c(oc(=O)c3c4occc4cc(OC)c23)c2cccc(OCc3ccccc3)c12 was > 100 µM

So the reported TGI for N#Cc1c(C#N)c(-c2ccccc2)n(Cc2ccccc2)c1N , on IGROV1 ovarian, turned out to be > 100 µM
